Target System: CquiOBP2 (Culex quinquefasciatus, UniProt C7BDZ6)
Sequence (C7BDZ6 entry or part of it): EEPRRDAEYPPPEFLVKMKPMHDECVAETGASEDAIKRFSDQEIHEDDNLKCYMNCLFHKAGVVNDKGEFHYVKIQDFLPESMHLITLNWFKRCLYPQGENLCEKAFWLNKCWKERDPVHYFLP
Method Description: biochemical
Type: binding
Measurement Conditions: CquiOBP2; residual NPN fluorescence, normalized to 100 prior to ligand; screen at 2–20 μM ligand
Measurement Label: Int (fluorescence emission)
Lab note: record just the number, no unit beside it.

Exercise: Provide Int (fluorescence emission) value for the following compound: CC(=O)OC/C=C(\C)CCC=C(C)C [Geranyl acetate, geranyl acetate]
Solution: 90

Exercise: Provide Int (fluorescence emission) value for the following compound: CCC(C)OC(=O)N1CCCCC1CCO (centres unmarked)
Solution: 77

Exercise: Provide one value: measured Int (fluorescence emission) of "OCCc1ccccc1"
Solution: 92

Exercise: Fill in reported Int (fluorescence emission) for this entry: "CC(=O)c1ccccc1"
Solution: 92

Exercise: Look up and report measured Int (fluorescence emission) for this entry: CC1CCC(O)CC1 (centres unmarked)
Solution: 88

Exercise: Read the entry "CC(C)[C@]12CC(=O)[C@H](C)[C@H]1C2" and write its reported Int (fluorescence emission).
Solution: 87

Exercise: Name the recorded Int (fluorescence emission) of the compound listed here: CCOC(=O)Cc1ccccc1 [Ethyl 2-phenylacetate, ethyl 2-phenylacetate]
Solution: 87

Exercise: Please look at this compound and report its Int (fluorescence emission): "CCCCCCO"
Solution: 89

###

Target System: CquiOBP1 (Culex quinquefasciatus, UniProt Q8T6I2)
Sequence (Q8T6I2 entry or part of it): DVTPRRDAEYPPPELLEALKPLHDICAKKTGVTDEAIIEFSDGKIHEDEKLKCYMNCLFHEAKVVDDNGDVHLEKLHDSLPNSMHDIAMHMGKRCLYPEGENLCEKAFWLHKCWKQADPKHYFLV
Method Description: biochemical
Assay type: binding
Measurement Conditions: CquiOBP1; residual NPN fluorescence, normalized to 100 prior to ligand; screen at 2–20 μM ligand
Measurement Label: Int (fluorescence emission)
Just the number.

Exercise: Identify measured Int (fluorescence emission) associated with "COc1ccccc1OC"
Solution: 88

Exercise: Identify measured Int (fluorescence emission) corresponding to "OCCc1ccccc1"
Solution: 91

Exercise: Look up and report measured Int (fluorescence emission) for this entry: CCC(C)OC(=O)N1CCCCC1CCO (stereo not shown)
Solution: 51

Exercise: Hello, please tell me recorded Int (fluorescence emission) for this one: "CCCCCCO"
Solution: 85

Exercise: Retrieve Int (fluorescence emission) measured for CCCCN(CCC(=O)OCC)C(C)=O [IR3535, ethyl 3-[acetyl(butyl)amino]propanoate] and print it.
Solution: 71

Exercise: For the compound "CC12CCC(CC1)C(C)(C)O2" , report Int (fluorescence emission).
Solution: 96

Exercise: Identify measured Int (fluorescence emission) associated with CC12CCC(C1)C(C)(C)C2=O (stereo not shown)
Solution: 89
